# protocol.details: Compound concentration required to reduce by 50% the number of T-MT4 lymphoblastoid cells after three cell cycles
# Assay type: functional
# applied.conditions: Homo sapiens; read-out: ID50 (the source's name)
Known IC50 of a selection of compounds
Kindly provide the numeric value in µM only, without the unit symbol.

NC(=O)c1nn(C2O[C@H](CO)[C@@H](O)[C@H]2O)cc1[N+](=O)[O-] (stereo not given in full)	80
NC(=O)c1nn(C2O[C@H](CO)[C@@H](O)[C@H]2O)cc1N (stereo not given in full)	470
NC(=O)c1nn(C2O[C@H](CO)[C@@H](O)[C@H]2O)cc1Br (stereo not given in full)	20
CCCCCn1nnc2c(C)nn(C3O[C@H](CO)[C@@H](O)[C@H]3O)c2c1=O (stereo not given in full)	540
NC(=O)c1nn([C@@H]2O[C@H](CO)[C@@H](O)[C@H]2O)cc1I	27

## Task What does the data say about its IC50? Entry: COc1cccc2c1C(=O)c1c(O)c3c(c(O)c1C2=O)C[C@@](O)(C(=O)CO)C[C@@H]3O[C@H]1C[C@H](N)[C@H](O)[C@H](C)O1
## Result 0.01

## Task What does the data say about its IC50? Entry: Cc1c([N+](=O)[O-])c(C(N)=O)nn1C1O[C@H](CO)[C@@H](O)[C@H]1O (stereo not given in full)
## Result 1490

## Task What does the data say about its IC50? Entry: CN(Cc1cnc2nc(N)nc(N)c2n1)c1ccc(C(=O)N[C@@H](CCC(=O)O)C(=O)O)cc1 [METHOTREXATE]
## Result 0.03

###

# System: Vero
# protocol.details: Concentration of compound required to reduce by 50% the number of coxsackie virus plaques in vero cells
# Assay type: functional
# applied.conditions: Chlorocebus sabaeus, read-out: ED50 (the source's name)
endpoint: EC50

NC(=O)c1nn(C2O[C@H](CO)[C@@H](O)[C@H]2O)cc1Br (stereo partly drawn)	> 1.55 mM
NC(=O)c1nn([C@@H]2O[C@H](CO)[C@@H](O)[C@H]2O)cc1I	0.12 mM
NC(=O)c1nn(C2O[C@H](CO)[C@@H](O)[C@H]2O)cc1N (stereo partly drawn)	> 1.83 mM
Cc1c(N)c(C(N)=O)nn1C1O[C@H](CO)[C@@H](O)[C@H]1O (stereo partly drawn)	> 1.84 mM
NC(=O)c1nn(C2O[C@H](CO)[C@@H](O)[C@H]2O)cc1[N+](=O)[O-] (stereo partly drawn)	> 1.73 mM
NC(=O)c1ccn(C2O[C@H](CO)[C@@H](O)[C@H]2O)n1 (stereo partly drawn)	> 2.05 mM

## Task Record lookup: for Vero, what EC50 belongs to CCCCCn1nnc2c(C)nn(C3O[C@H](CO)[C@@H](O)[C@H]3O)c2c1=O (stereo partly drawn) ?
## Result > 1.4 mM

## Task Record lookup: for Vero, what EC50 belongs to Cc1c([N+](=O)[O-])c(C(N)=O)nn1C1O[C@H](CO)[C@@H](O)[C@H]1O (stereo partly drawn) ?
## Result > 1.65 mM

###

Known pIC50 of a selection of molecules
# Tested on: Raji
# protocol.details: Compound concentration required to reduce by 50% the number of human B (Raji)cells after three cell cycles
# Assay type: functional
# applied.conditions: read-out: ID50 (the source's name)
The read-out pIC50 is expressed as -log10 of concentration in moles per litre.

COc1cccc2c1C(=O)c1c(O)c3c(c(O)c1C2=O)C[C@@](O)(C(=O)CO)C[C@@H]3O[C@H]1C[C@H](N)[C@H](O)[C@H](C)O1 [DOXORUBICIN]	8.00

## Task What does the data say about its pIC50? Entry: CCCCCn1nnc2c(C)nn(C3O[C@H](CO)[C@@H](O)[C@H]3O)c2c1=O (stereo not given in full)
## Result 2.85

Values from ChEMBL document CHEMBL1125397
